experimentalSystem: IRAK4 (Homo sapiens)
Construct: Degradation of IRAK4 in OCI-LY10 was quantitatively measured using Meso Scale Discovery technology; endogenous in cells; host or cells: OCI-LY10
Sequence (Q9NWZ3 1-460): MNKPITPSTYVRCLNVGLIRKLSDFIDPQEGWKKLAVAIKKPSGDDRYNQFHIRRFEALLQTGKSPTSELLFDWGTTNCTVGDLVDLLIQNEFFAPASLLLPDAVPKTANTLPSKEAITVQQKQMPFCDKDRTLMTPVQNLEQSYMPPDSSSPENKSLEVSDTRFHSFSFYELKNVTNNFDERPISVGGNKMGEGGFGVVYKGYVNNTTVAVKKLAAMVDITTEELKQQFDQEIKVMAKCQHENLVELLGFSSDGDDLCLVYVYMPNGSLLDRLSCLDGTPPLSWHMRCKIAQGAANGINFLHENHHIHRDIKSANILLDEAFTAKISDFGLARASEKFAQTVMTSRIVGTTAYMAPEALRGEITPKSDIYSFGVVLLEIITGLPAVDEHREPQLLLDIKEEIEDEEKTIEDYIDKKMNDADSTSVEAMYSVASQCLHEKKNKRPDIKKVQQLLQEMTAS
assay: IRAK4 MSD Degradation in OCI-LY10
Assay type: cell-based
recordedConditions: OCI-LY10 cells, 4 hrs incubation, MSD; read-out: IRAK4 degradation in OCI-LY10 at 4 hrs: DC50
Give DC50 for every item shown.

Query :: # lookup: IRAK4 (Homo sapiens) DC50, key = Cn1c(=O)n(C2CCC(=O)NC2=O)c2cccc([C@]34C[C@](COC5CCN(C[C@H]6CC[C@H](n7cc(NC(=O)c8cnn9ccc(N%10C[C@H]%11C[C@@H]%10CO%11)nc89)c(C(F)F)n7)CC6)CC5)(C3)C4)c21 (stereo partly drawn)
Result :: < 10 nM

Query :: # lookup: IRAK4 (Homo sapiens) DC50, key = O=C1CCC(c2ccc(N3CC(CN4CCN(C[C@H]5CC[C@H](n6cc(NC(=O)c7cnn8ccc(N9C[C@H]%10C[C@@H]9CO%10)nc78)c(C(F)F)n6)CC5)CC4)C3)cc2Cl)C(=O)N1 (stereo partly drawn)
Result :: > 200 nM

Query :: # lookup: IRAK4 (Homo sapiens) DC50, key = Cn1c(=O)n(C2CCC(=O)NC2=O)c2cccc(C3CN([C@@H]4CCN(C[C@H]5CC[C@H](n6cc(NC(=O)c7cnn8ccc(N9C[C@H]%10C[C@@H]9CO%10)nc78)c(C(F)F)n6)CC5)C[C@H]4F)C3)c21 (stereo partly drawn)
Result :: > 200 nM
